run.description: chemical genetic growth profiling, strain panel (AID 1159580);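 also: tested at 20 µM; growth read once vehicle control cultures reached saturation at 30 °C; lower values mean less growth of the strain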
experimental.context: S. cerevisiae deletion strains, growth OD, locus YJL187C, strain SWE1 (second series), hits give low values
Screen size: about 5,500 compounds; about 2,000 (36%) were called active. About 18% were inconclusive and are not listed. Some of the results follow.
Just a reminder that ties go to not met: only normalized growth strictly below 1 counts as met.

# TODO verify normalized growth < 1 strictly for this compound: CC(=O)C1CCC2C3CC(=O)C4=CC(=O)CCC4(C)C3CCC12C (stereo unspecified)
met

# TODO verify normalized growth < 1 strictly for this compound: `CCC(=O)O[C@H]1[C@H](O[C@@H]2[C@@H](C)[C@H](O[C@H]3C[C@@](C)(OC)[C@@H](O)[C@H](C)O3)[C@@H](C)C(=O)O[C@H](CC)[C@@](C)(O)[C@H](O)[C@@H](C)C(=O)[C@H](C)C[C@@]2(C)O)O[C@H](C)C[C@@H]1N(C)C`
met

# TODO verify normalized growth < 1 strictly for this compound: CCC(=O)O[C@H]1CCC2C3CCC4=CC(=O)CC[C@]4(C)C3CC[C@@]21C (stereo partly specified)
met

# TODO verify normalized growth < 1 strictly for this compound: c1cncc(C2CCCCN2)c1 (stereo unspecified)
not met
